- TARGET_ENTITY: Human recombinant Acetyl-CoA Carboxylase 2 (ACC2) (Homo sapiens, UniProt O00763)
- Sequence (O00763 whole entry): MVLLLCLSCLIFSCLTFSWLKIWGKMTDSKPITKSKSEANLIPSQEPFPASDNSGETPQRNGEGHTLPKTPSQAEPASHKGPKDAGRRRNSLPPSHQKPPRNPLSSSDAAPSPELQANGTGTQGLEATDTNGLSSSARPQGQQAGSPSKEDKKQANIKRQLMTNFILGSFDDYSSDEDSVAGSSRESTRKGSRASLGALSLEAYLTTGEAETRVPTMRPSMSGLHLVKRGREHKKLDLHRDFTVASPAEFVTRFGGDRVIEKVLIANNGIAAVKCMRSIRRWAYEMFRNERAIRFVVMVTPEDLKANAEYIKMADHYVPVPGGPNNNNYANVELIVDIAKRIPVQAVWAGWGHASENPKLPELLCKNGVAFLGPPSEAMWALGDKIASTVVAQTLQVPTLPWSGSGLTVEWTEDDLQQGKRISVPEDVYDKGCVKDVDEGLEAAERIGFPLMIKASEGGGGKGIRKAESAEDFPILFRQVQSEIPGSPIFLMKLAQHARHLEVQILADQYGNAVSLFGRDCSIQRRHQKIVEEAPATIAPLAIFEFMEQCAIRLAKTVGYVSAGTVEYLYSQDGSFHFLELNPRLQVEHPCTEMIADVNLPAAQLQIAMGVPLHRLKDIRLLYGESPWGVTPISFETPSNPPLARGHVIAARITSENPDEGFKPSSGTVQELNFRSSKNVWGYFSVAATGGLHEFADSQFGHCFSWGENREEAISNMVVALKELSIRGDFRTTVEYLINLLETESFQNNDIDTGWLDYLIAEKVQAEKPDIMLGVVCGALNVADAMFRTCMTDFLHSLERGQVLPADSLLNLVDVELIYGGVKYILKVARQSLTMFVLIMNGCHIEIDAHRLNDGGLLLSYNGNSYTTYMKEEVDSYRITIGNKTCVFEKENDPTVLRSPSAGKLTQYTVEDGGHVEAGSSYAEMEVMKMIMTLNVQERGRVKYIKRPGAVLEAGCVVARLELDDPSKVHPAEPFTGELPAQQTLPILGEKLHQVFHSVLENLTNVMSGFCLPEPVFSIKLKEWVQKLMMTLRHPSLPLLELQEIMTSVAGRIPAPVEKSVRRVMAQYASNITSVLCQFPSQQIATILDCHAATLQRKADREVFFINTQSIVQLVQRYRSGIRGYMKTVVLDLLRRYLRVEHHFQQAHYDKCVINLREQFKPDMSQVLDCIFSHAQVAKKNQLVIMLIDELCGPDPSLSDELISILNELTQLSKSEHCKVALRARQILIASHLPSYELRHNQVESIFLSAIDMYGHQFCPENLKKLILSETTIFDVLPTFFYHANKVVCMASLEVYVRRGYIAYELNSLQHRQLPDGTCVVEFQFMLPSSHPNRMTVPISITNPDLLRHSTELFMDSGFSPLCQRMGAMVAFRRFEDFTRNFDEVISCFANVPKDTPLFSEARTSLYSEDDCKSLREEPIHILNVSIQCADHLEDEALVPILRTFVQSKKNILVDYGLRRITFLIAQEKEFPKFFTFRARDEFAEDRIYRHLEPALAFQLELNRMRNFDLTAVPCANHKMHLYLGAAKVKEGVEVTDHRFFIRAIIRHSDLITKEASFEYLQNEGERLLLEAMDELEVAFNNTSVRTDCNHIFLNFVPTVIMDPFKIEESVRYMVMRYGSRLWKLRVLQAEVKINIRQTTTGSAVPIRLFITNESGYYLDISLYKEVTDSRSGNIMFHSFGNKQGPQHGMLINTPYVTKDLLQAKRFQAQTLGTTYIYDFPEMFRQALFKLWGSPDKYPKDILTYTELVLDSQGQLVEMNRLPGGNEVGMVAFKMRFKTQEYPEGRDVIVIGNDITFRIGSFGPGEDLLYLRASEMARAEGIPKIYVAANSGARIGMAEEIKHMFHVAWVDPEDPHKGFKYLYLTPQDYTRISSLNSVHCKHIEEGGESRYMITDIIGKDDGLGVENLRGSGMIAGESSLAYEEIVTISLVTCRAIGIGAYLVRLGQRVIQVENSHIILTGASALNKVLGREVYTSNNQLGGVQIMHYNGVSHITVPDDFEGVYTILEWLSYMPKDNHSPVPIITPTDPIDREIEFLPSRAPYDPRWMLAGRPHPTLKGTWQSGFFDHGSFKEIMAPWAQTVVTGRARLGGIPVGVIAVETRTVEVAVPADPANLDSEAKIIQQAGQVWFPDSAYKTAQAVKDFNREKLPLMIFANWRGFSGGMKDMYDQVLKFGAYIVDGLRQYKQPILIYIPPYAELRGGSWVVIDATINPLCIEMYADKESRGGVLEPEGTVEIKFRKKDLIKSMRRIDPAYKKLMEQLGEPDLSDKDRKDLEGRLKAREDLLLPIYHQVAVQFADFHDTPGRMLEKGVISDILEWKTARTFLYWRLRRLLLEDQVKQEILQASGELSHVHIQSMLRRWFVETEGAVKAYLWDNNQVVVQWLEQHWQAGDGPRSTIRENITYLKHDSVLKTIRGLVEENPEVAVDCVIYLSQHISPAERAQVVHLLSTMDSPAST
- ASSAY_METHOD_TEXT: Assay X: ACC2 inhibition, inorganic phosphate (malachite green)
- Format: biochemical
- TEST_CONTEXT: Assay X: 37° C., 1.5 h, 5 min pre-incubation
MEASURED_METRIC: IC50 (nM)

COMPOUND | IC50 [nM]
CC(C)(C)OC(=O)NC[C@H]1CC[C@H](CNC(=O)c2cc(N3CCC(CCN4CC(O)C4)CC3)nc3ccccc23)CC1 | 100
CN(C)CCOc1ccc(-c2cc(C(=O)NC[C@H]3CC[C@H](CNC(=O)OC(C)(C)C)CC3)c3ccccc3n2)cc1 | 150
CC(C)(C)OC(=O)NC[C@H]1CC[C@H](CNC(=O)c2cc(-c3cn[nH]c3)nc(-c3cccc(CN)c3)c2)CC1 | 350
CC(C)(C)OC(=O)NC[C@H]1CC[C@H](CNC(=O)c2cc(N3CCC(CCN4CCC(O)C4)CC3)nc3ccccc23)CC1 (relative stereo) | 160
CC(C)(C)OC(=O)NC[C@H]1CC[C@H](CNC(=O)c2cc(N3CCN(C(=O)CO)CC3)nc3ccccc23)CC1 | 1180

I: CC(C)(C)OC(=O)NC[C@H]1CC[C@H](CNC(=O)c2cc(N3CCC(CCN4CC(N)C4)CC3)nc3ccccc23)CC1
II: CC(C)(C)OC(=O)NC[C@H]1CC[C@H](CNC(=O)c2cc(-c3ccc(N4CCNCC4)nc3)nc3ccccc23)CC1
III: CC(C)(C)OC(=O)NC[C@H]1CC[C@H](CNC(=O)c2cc(-c3ccc(N(CCO)CCO)nc3)nc3ccccc23)CC1
IV: CN(C)CCNC(=O)C1CN(c2cc(C(=O)NC[C@H]3CC[C@H](CNC(=O)OC(C)(C)C)CC3)c3ccccc3n2)C1
V: CC(C#N)OC(=O)NC[C@H]1CC[C@H](CNC(=O)c2cc(-c3ccc(N4CCN(C)CC4)nc3)nc3ccccc23)CC1 (stereo partly drawn)
Order the items by recorded IC50; the first position goes to the largest value. Write the labels, ordered according to the request.
V, IV, III, I, II

---

- TARGET_ENTITY: Human recombinant Acetyl-CoA Carboxylase 2 (ACC2) (Homo sapiens)
- ASSAY_METHOD_TEXT: Assay Y: ACC2 inhibition, inorganic phosphate (Malachite Green)
- Assay type: biochemical
- TEST_CONTEXT: Assay Y: room temperature, 3 hr, 15 min preincubation
MEASURED_METRIC: IC50 (µM)

Look over these answered cases.
COMPOUND | TARGET_ENTITY | IC50, µM
CN(C)S(=O)(=O)c1ccc(-c2cc(C(=O)NC[C@H]3CC[C@H](CNC(=O)O[C@H]4CCOC4)CC3)c3ccccc3n2)cc1 | Human recombinant Acetyl-CoA Carboxylase 2 (ACC2) (Homo sapiens) | 0.92
COC(=O)NCc1ccc(-c2cc(C(=O)NC[C@H]3CC[C@H](CNC(=O)OC(C)(C)C)CC3)c3ccccc3n2)cc1 | Human recombinant Acetyl-CoA Carboxylase 2 (ACC2) (Homo sapiens) | 0.11
CC(C)OC(=O)NC[C@H]1CC[C@H](CNC(=O)c2cc(-c3ccncc3)nc3ccccc23)CC1 | Human recombinant Acetyl-CoA Carboxylase 2 (ACC2) (Homo sapiens) | 0.8

P: CC(C)(C)OC(=O)NC[C@H]1CC[C@H](CNC(=O)c2cc(-c3ccc(CC(=O)O)cc3)nc3ccccc23)CC1
Q: CC(=O)N1CCN(CCCOc2cc(C(=O)NC[C@H]3CC[C@H](CNC(=O)OC(C)(C)C)CC3)c3ccccc3n2)CC1
Quick check, higher IC50 between P and Q ? Write the label of whichever entry you select.
Q

P: CN1CCN(c2ccc(-c3cc(C(=O)NC[C@H]4CC[C@H](CNC(=O)OCC5CCO5)CC4)c4ccccc4n3)cn2)CC1 (relative stereo)
Q: CC(C)(C)OC(=O)NC[C@H]1CC[C@H](CNC(=O)c2cc(-c3ccc(CNC(N)=O)cc3)nc3ccccc23)CC1
Quick check, higher IC50 between P and Q ? Write the label of whichever entry you select.
P

I: CCOC(=O)NC[C@H]1CC[C@H](CNC(=O)c2cc(-c3ccc(C(N)=O)cc3)nc3ccccc23)CC1
II: C=CCN(C[C@H]1CC[C@H](CNC(=O)OC(C)(C)C)CC1)S(=O)(=O)c1ccc2ccccc2c1
Looking at recorded values for IC50, does I or II come in lower? Write the label of whichever entry you select.
I

---

- TARGET_ENTITY: Human recombinant Acetyl-CoA Carboxylase 2 (ACC2) (Homo sapiens)
- ASSAY_METHOD_TEXT: Assay Y: ACC2 inhibition, inorganic phosphate (Malachite Green)
- Assay type: biochemical
- TEST_CONTEXT: Assay Y: room temperature, 3 hr, 15 min preincubation
MEASURED_METRIC: IC50 (nM)

INPUT_SMILES | IC50 [nM]
COc1ccc(-c2cc(C(=O)NC[C@H]3CC[C@H](CNC(=O)OC(C)(C)C)CC3)ccn2)c(OC)n1 | 9670

I: CC(C)(C)OC(=O)NC[C@H]1CC[C@H](CNC(=O)c2cc(-c3ccc(S(N)(=O)=O)cc3)nc3ccccc23)CC1
II: CC(C)(C)OC(=O)NC[C@H]1CC[C@H](CNC(=O)c2cc(-c3cccc(CN)c3)nc3ccccc23)CC1
III: COCCOC(=O)NC[C@H]1CC[C@H](CNC(=O)c2cc(-c3ccc(N4CCN(C)CC4)nc3)nc3ccccc23)CC1
IV: Cc1ccc(-c2cc(C(=O)NC[C@H]3CC[C@H](CNC(=O)OC(C)(C)C)CC3)c3ccccc3n2)cc1
Would you mind ranking these compounds by ascending IC50? Write the labels, ordered according to the request.
II, I, IV, III
(II: 20 nM, I: 80 nM, IV: 620 nM, III: 1320 nM)

A: CCOC(=O)NC[C@H]1CC[C@H](CNC(=O)c2cc(-c3ccccc3OC)nc3ccccc23)CC1
B: COc1ccc(-c2cc(C(=O)NC[C@H]3CC[C@H](CNC(=O)OC(C)(C)C)CC3)ccn2)cc1
Looking at recorded values for IC50, does A or B come in lower? Write the label of whichever entry you select.
A
(A: 3560 nM, B: 6140 nM)

I: CC(C)(C)OC(=O)NC[C@H]1CC[C@H](CNC(=O)c2cc(-c3ccc(CNS(C)(=O)=O)cc3)nc3ccccc23)CC1
II: CCOC(=O)NC[C@H]1CC[C@H](CNC(=O)c2cc(-c3ccc(N4CCN(C)CC4)nc3)nc3ccccc23)CC1
Quick check, higher IC50 between I and II ? Write the label of whichever entry you select.
II
(II: 720 nM, I: 70 nM)

I: CCOc1ccc(-c2cc(C(=O)NC[C@H]3CC[C@H](CNC(=O)OC(C)(C)C)CC3)ccn2)cn1
II: CN(C)CCCOc1ccc(-c2cc(C(=O)NC[C@H]3CC[C@H](CNC(=O)OC(C)(C)C)CC3)c3ccccc3n2)cn1
Quick check, higher IC50 between I and II ? Write the label of whichever entry you select.
I

---

- TARGET_ENTITY: Human recombinant Acetyl-CoA Carboxylase 1 (ACC1) (Homo sapiens)
- ASSAY_METHOD_TEXT: Assay Y: ACC1 inhibition, inorganic phosphate (Malachite Green)
- Type: biochemical
- TEST_CONTEXT: Assay Y: room temperature, 3 hr, 15 min preincubation
pIC50: −log10 of the molar value.
MEASURED_METRIC: pIC50

COMPOUND | TARGET_ENTITY | pIC50
CC(C)(C)OC(=O)NC[C@H]1CC[C@H](CNC(=O)c2cccc3ccccc23)CC1 [Example 96] | Human recombinant Acetyl-CoA Carboxylase 1 (ACC1) (Homo sapiens) | < 4.70
CC(C)(C)OC(=O)NC[C@H]1CC[C@H](CNS(=O)(=O)c2ccc(Br)c(Br)c2)CC1 [Example 64] | Human recombinant Acetyl-CoA Carboxylase 1 (ACC1) (Homo sapiens) | < 4.70

Bench note, Human recombinant Acetyl-CoA Carboxylase 1 (ACC1) (Homo sapiens): entry CC(C)(C)OC(=O)NC[C@H]1CC[C@H](CNS(=O)(=O)c2ccsc2)CC1 [Example 74] , its pIC50 = < 4.70

---

- TARGET_ENTITY: Human recombinant Acetyl-CoA Carboxylase 2 (ACC2) (Homo sapiens, UniProt O00763)
- ASSAY_METHOD_TEXT: Assay X: ACC2 inhibition, inorganic phosphate (malachite green)
- Assay type: biochemical
- TEST_CONTEXT: Assay X: 37° C., 1.5 h, 5 min pre-incubation
pIC50: −log10 of the molar value.
MEASURED_METRIC: pIC50

Look over these answered cases.
COMPOUND | TARGET_ENTITY | MEAS_VALUE
CN(C)CC(F)CC1CCN(c2cc(C(=O)NC[C@H]3CC[C@H](CNC(=O)OC(C)(C)C)CC3)c3ccccc3n2)CC1 (some centres unmarked) | Human recombinant Acetyl-CoA Carboxylase 2 (ACC2) (Homo sapiens, UniProt O00763) | 6.85
CN(C)CCNc1ccc(-c2cc(C(=O)NC[C@H]3CC[C@H](CNC(=O)O[C@H]4CCOC4)CC3)c3ccccc3n2)cn1 | Human recombinant Acetyl-CoA Carboxylase 2 (ACC2) (Homo sapiens, UniProt O00763) | 6.43
CC(C)(C)OC(=O)NC[C@H]1CC[C@H](CNC(=O)c2cc(-c3ccc(N)cc3)nc3ccccc23)CC1 | Human recombinant Acetyl-CoA Carboxylase 2 (ACC2) (Homo sapiens, UniProt O00763) | 7.22

A: CN(C)[C@H]1CCN(c2ccc(-c3cc(C(=O)NC[C@H]4CC[C@H](CNC(=O)OC(C)(C)C)CC4)c4ccccc4n3)cn2)C1
B: CC(C)(C)OC(=O)NC[C@H]1CC[C@H](CNC(=O)c2cc(-c3ccc(N4CC(O)C4)nc3)nc3ccccc23)CC1
Quick check, higher pIC50 between A and B ? Write the label of whichever entry you select.
A
